- tested-target: Muscarinic acetylcholine receptor
- run-description: In Vitro binding affinity to the muscarinic acetylcholine receptor site in rat brain by using [3H]QNB as the radioligand.
- Assay type: tissue-based
assay-endpoint: IC50 (µM)

Examples with answers:
| compound | assay-endpoint | endpoint-result |
| --- | --- | --- |
| CCCCc1noc(C2=CCCN(CC)C2)n1 | IC50 | 20.6 |
| CCCCCCCc1noc(C2=CCCN(C)C2)n1.O=C(O)C(=O)O | IC50 | 9.1 |
| CN1CCC=C(c2nc(C3CCCC3)no2)C1.O=C(O)C(=O)O | IC50 | 10.8 |

1. CN1CCC=C(c2nc(C3CC3)no2)C1.O=C(O)C(=O)O
2. CCCCc1noc(C2=CCCNC2)n1
3. CN1CCC=C(c2nc(CC3CC3)no2)C1.O=C(O)C(=O)O
Qu. Rank items: key IC50, increasing. // respond by listing labels in the order requested
Ans. 1, 3, 2

A. COCc1noc(C2=CCCN(C)C2)n1.O=C(O)C(=O)O
B. CCc1nc(C2=CCCN(C)C2)no1.O=C(O)C(=O)O
Qu. Lower IC50: A or B ? Kindly give the label for the entry you pick.
Ans. A

I. CCCCc1noc(C2=CCC(C)N(C)C2)n1 (configuration not stated)
II. Cc1nc(C2=CCCN(C)C2)no1.O=C(O)C(=O)O
Qu. Which has the higher IC50, I or II ? Kindly give the label for the entry you pick.
Ans. II

a. CCCc1noc(C2=CCCN(C)C2)n1.O=C(O)C(=O)O
b. CCCc1nc(C2=CCCN(C)C2)no1.O=C(O)C(=O)O
Qu. Lower IC50: a or b ? Kindly give the label for the entry you pick.
Ans. a
(a: 17.4 µM, b: 88 µM)

* * *

- tested-target: Muscarinic acetylcholine receptor
- run-description: In Vitro binding affinity to the muscarinic acetylcholine receptor site in rat brain by using [3H]QNB as the radioligand.
- Format: tissue-based
assay-endpoint: IC50 (µM)

Examples with answers:
| molecule | unit-tag | endpoint-result |
| --- | --- | --- |
| COCCc1noc(C2=CCCN(C)C2)n1.O=C(O)C(=O)O | µM | 41.5 |
| CCCCc1noc(C2CN3CCC2CC3)n1 (stereo unspecified) | µM | 1.5 |
| CCCCCCCCc1noc(C2=CCCN(C)C2)n1.O=C(O)C(=O)O | µM | 11 |
| CCc1noc(C2=CCCN(C)C2)n1.O=C(O)C(=O)O | µM | 35.3 |

1. CCOCCc1noc(C2=CCCN(C)C2)n1.O=C(O)C(=O)O
2. CN1CCC=C(c2nc(C3CCC3)no2)C1.O=C(O)C(=O)O
Qu. Lower IC50: 1 or 2 ? Kindly give the label for the entry you pick.
Ans. 2
(2: 12.9 µM, 1: 42.8 µM)

* * *

- tested-target: Muscarinic acetylcholine receptor
- run-description: In Vitro binding affinity to the muscarinic acetylcholine receptor site in rat brain by using [3H]QNB as the radioligand.
- Assay type: tissue-based
assay-endpoint: IC50 (µM)

Examples with answers:
| compound | tested-target | endpoint-result |
| --- | --- | --- |
| CN1CCC=C(c2nc(C3CCCCCC3)no2)C1.O=C(O)C(=O)O | Muscarinic acetylcholine receptor | 16 |
| CC(C)c1noc(C2=CCCN(C)C2)n1.O=C(O)C(=O)O | Muscarinic acetylcholine receptor | 15.8 |

I. CCCCCc1noc(C2=CCCN(C)C2)n1.O=C(O)C(=O)O
II. Cc1noc(C2=CCCN(C)C2)n1.O=C(O)C(=O)O
Qu. Lower IC50: I or II ? Kindly give the label for the entry you pick.
Ans. I
(I: 6.7 µM, II: 41 µM)

I. CN1CCC=C(c2nc(C(C)(C)C)no2)C1.O=C(O)C(=O)O
II. CCCCc1noc(C2=CCCN(C)C2)n1.O=C(O)C(=O)O
Qu. Lower IC50: I or II ? Kindly give the label for the entry you pick.
Ans. I
(I: 9 µM, II: 15.8 µM)

* * *

- tested-target: Muscarinic acetylcholine receptor (Rattus norvegicus) (UniProt P08482+P08483+P08485+P08911+P10980)
assay-endpoint: Muscarinic agonist index

| molecule | endpoint-result |
| --- | --- |
| CCCCc1noc(C2=CCC(C)N(C)C2)n1 (stereo unspecified) | 11 |
| CN1CCC=C(c2nc(C(C)(C)C)no2)C1.O=C(O)C(=O)O | 5 |
| CCCCc1noc(C2=CCCN(C)C2)n1.O=C(O)C(=O)O | 181 |
| CCCCc1noc(C2CN3CCC2CC3)n1 (stereo unspecified) | 4 |
| CCCc1nc(C2=CCCN(C)C2)no1.O=C(O)C(=O)O | 80 |
| CN1CCC=C(c2nc(C3CCC3)no2)C1.O=C(O)C(=O)O | 11 |

A. CN1CCC=C(c2nc(C3CC3)no2)C1.O=C(O)C(=O)O
B. CCc1nc(C2=CCCN(C)C2)no1.O=C(O)C(=O)O
C. COCCc1noc(C2=CCCN(C)C2)n1.O=C(O)C(=O)O
D. Cc1nc(C2=CCCN(C)C2)no1.O=C(O)C(=O)O
E. CCc1noc(C2=CCCN(C)C2)n1.O=C(O)C(=O)O
Qu. Rank items: key Muscarinic agonist index, increasing. // respond by listing labels in the order requested
Ans. A, B, C, D, E
(A: 14, B: 26, C: 47, D: 68, E: 520)

a. CCCCc1noc(C2=CC(C)CNC2)n1 (stereo unspecified)
b. CCCCCCCCc1noc(C2=CCCN(C)C2)n1.O=C(O)C(=O)O
Qu. Lower Muscarinic agonist index: a or b ? Kindly give the label for the entry you pick.
Ans. a
(a: 15, b: 30)

P. CC(C)c1noc(C2=CCCN(C)C2)n1.O=C(O)C(=O)O
Q. Cc1noc(C2=CCCN(C)C2)n1.O=C(O)C(=O)O
Qu. Which has the higher Muscarinic agonist index, P or Q ? Kindly give the label for the entry you pick.
Ans. Q
(Q: 540, P: 14)

1. CN1CCC=C(c2nc(CC3CC3)no2)C1.O=C(O)C(=O)O
2. CCCCCCCc1noc(C2=CCCN(C)C2)n1.O=C(O)C(=O)O
Qu. Lower Muscarinic agonist index: 1 or 2 ? Kindly give the label for the entry you pick.
Ans. 2

A. COCc1noc(C2=CCCN(C)C2)n1.O=C(O)C(=O)O
B. CN1CCC=C(c2nc(C3CCCC3)no2)C1.O=C(O)C(=O)O
C. CCOCCc1noc(C2=CCCN(C)C2)n1.O=C(O)C(=O)O
D. CCCCc1noc(C2=CCCN(CC)C2)n1
E. CCCc1noc(C2=CCCN(C)C2)n1.O=C(O)C(=O)O
Qu. Rank items: key Muscarinic agonist index, increasing. // respond by listing labels in the order requested
Ans. B, D, C, A, E
(B: 15, D: 39, C: 65, A: 249, E: 447)

P. CCCCCc1noc(C2=CCCN(C)C2)n1.O=C(O)C(=O)O
Q. CCCCc1noc(C2=CCCNC2)n1
Qu. Lower Muscarinic agonist index: P or Q ? Kindly give the label for the entry you pick.
Ans. P
(P: 29, Q: 339)

* * *

- tested-target: Muscarinic acetylcholine receptor
- run-description: Agonist activity at muscarinic acetylcholine receptor in isolated guinea pig ileum.
- Assay type: functional, tissue-based, Cavia porcellus
assay-endpoint: EC50 (µM)

Examples with answers:
| mol-smiles | unit-tag | EC50 |
| --- | --- | --- |
| CCCCCc1noc(C2=CCCN(C)C2)n1.O=C(O)C(=O)O | µM | 0.62 |
| CCCCc1noc(C2=CCCNC2)n1 | µM | 0.32 |

A. CCCCc1noc(C2=CCCN(C)C2)n1.O=C(O)C(=O)O
B. COCCc1noc(C2=CCCN(C)C2)n1.O=C(O)C(=O)O
Qu. Which has the higher EC50, A or B ? Kindly give the label for the entry you pick.
Ans. B
(B: 0.72 µM, A: 0.15 µM)

a. CCCCCCCc1noc(C2=CCCN(C)C2)n1.O=C(O)C(=O)O
b. CN1CCC=C(c2nc(CC3CC3)no2)C1.O=C(O)C(=O)O
Qu. Lower EC50: a or b ? Kindly give the label for the entry you pick.
Ans. a

* * *

- tested-target: Muscarinic acetylcholine receptor M3 (Cavia porcellus)
- run-description: Antagonist activity at muscarinic acetylcholine receptor in isolated guinea pig ileum.
- Assay type: functional, tissue-based
assay-endpoint: Kb (µM)

| molecule | assay-endpoint | endpoint-result |
| --- | --- | --- |
| CN1CCC=C(c2nc(C(C)(C)C)no2)C1.O=C(O)C(=O)O | Kb | 0.2 |
| CCCCc1noc(C2=CCC3CCC2N3C)n1 (stereo not given) | Kb | 0.22 |
| CC(C)c1noc(C2=CCCN(C)C2)n1.O=C(O)C(=O)O | Kb | 0.2 |
| CCCCc1noc(C2=CCC(C)N(C)C2)n1 (stereo not given) | Kb | 0.13 |

1. CCCCc1noc(C2=CCCN(CC)C2)n1
2. CN1CCC=C(c2nc(C3CCCC3)no2)C1.O=C(O)C(=O)O
Qu. Lower Kb: 1 or 2 ? Kindly give the label for the entry you pick.
Ans. 1
(1: 0.7 µM, 2: 1.55 µM)

P. CN1CCC=C(c2nc(C3CCCCCC3)no2)C1.O=C(O)C(=O)O
Q. CCCc1nc(C2=CCCN(C)C2)no1.O=C(O)C(=O)O
Qu. Which has the higher Kb, P or Q ? Kindly give the label for the entry you pick.
Ans. Q
(Q: 3.38 µM, P: 0.16 µM)
